System: SF-295
assay_text: Antiproliferative activity against human SF-295 cells assessed as cell growth inhibition at 10 uM by SRB assay
Type: functional, cell-based
The source made the active and inactive calls. No cut-off for these calls is given here.

{"smi": "COc1cc2oc(-c3cccc(NC(=O)c4ccc(C(F)(F)F)cc4)c3)cc(=O)c2c(OC)c1OC", "tested_system": "SF-295", "inhibition": "Active"}
{"smi": "COC(=O)c1ccc(C(=O)Nc2ccc(-c3cc(=O)c4c(OC)c(OC)c(OC)cc4o3)cc2)cc1", "tested_system": "SF-295", "inhibition": "Active"}
{"smi": "COc1cc2oc(-c3cccc(NC(=O)c4ccc(C#N)cc4)c3)cc(=O)c2c(OC)c1OC", "tested_system": "SF-295", "inhibition": "Active"}
{"smi": "COc1cc2oc(-c3cccc(NC(=O)c4cccc(Br)c4)c3)cc(=O)c2c(OC)c1OC", "tested_system": "SF-295", "inhibition": "Active"}
{"smi": "COc1cc2oc(-c3ccc(NC(=O)c4ccccc4Br)cc3)cc(=O)c2c(OC)c1OC", "tested_system": "SF-295", "inhibition": "Active"}

---

System: NCI-H522
assay_text: Antiproliferative activity against human NCI-H522 cells assessed as cell growth inhibition at 10 uM by SRB assay
Format: functional, cell-based
The source made the active and inactive calls. The rule behind the calls is not given here.

{"smi": "COc1cc2oc(-c3ccc(NC(=O)c4ccc(Cl)cc4)cc3)cc(=O)c2c(OC)c1OC", "inhibition": "Active"}
{"smi": "COc1cc2oc(-c3ccc(NC(=O)c4cccc(C#N)c4)cc3)cc(=O)c2c(OC)c1OC", "inhibition": "Active"}
{"smi": "COc1cc2oc(-c3cccc(NC(=O)c4ccc(F)cc4)c3)cc(=O)c2c(OC)c1OC", "inhibition": "Active"}
